Tested on: Streptococcus pneumoniae
Test: Inhibition of Streptococcus pneumoniae MurF using D-Ala-D-Ala/UMtri-L-Lys as substrate assessed as residual activity at 100 uM after 15 mins by Malachite green method
Parameter measured: Activity (%)
Numbers only, in %.

Look over these answered cases.
CCOC(=O)C1CCN(S(=O)(=O)c2cc(C(=O)Nc3sc4c(c3C#N)CCCC4)c(Cl)cc2Cl)CC1
100
N#Cc1c(NC(=O)c2cc(S(=O)(=O)N3CCSC3)c(Cl)cc2Cl)sc2c1CCCC2
66
N#Cc1c(NC(=O)c2cc(S(=O)(=O)N3CCOCC3)c(Cl)cc2Cl)sc2c1CCN(c1ccc([N+](=O)[O-])cc1)C2
80

I have 2 compounds here; please give me Activity for each one.
1. CC1CCN(S(=O)(=O)c2cc(C(=O)Nc3sc4c(c3C#N)CCCC4)c(Cl)cc2Cl)CC1
2. N#Cc1c(NC(=O)c2cc(S(=O)(=O)N3CCSCC3)c(Cl)cc2Cl)sc2c1CCCC2

[90, 42]

Batch request: Activity per item, same order as input.
1. N#Cc1c(NC(=O)c2cc(S(=O)(=O)N3CCNC(=O)C3)c(Cl)cc2Cl)sc2c1CCCC2
2. N#Cc1ccc(N2CCc3c(sc(NC(=O)c4cc(S(=O)(=O)N5CCOCC5)c(Cl)cc4Cl)c3C#N)C2)cc1
3. CCOC(=O)c1ccc(N2CCc3c(sc(NC(=O)c4cc(S(=O)(=O)N5CCOCC5)c(Cl)cc4Cl)c3C#N)C2)cc1

89
63
80

====

Assay: Inhibition of Staphylococcus aureus MurF using D-Ala-D-Ala/UMtri-L-Lys as substrate after 15 mins by Malachite green method
I'd appreciate it if you could supply IC50 values for the items below.
Answers are plain numbers, in µM.

COc1ccc(CN2CCc3c(sc(NC(=O)c4cc(S(=O)(=O)N5CCOCC5)c(Cl)cc4Cl)c3C#N)C2)cc1O
115
COc1cc(CN2CCc3c(sc(NC(=O)c4cc(S(=O)(=O)N5CCOCC5)c(Cl)cc4Cl)c3C#N)C2)cc(OC)c1O
84
N#Cc1c(NC(=O)c2cc(S(=O)(=O)N3CCOCC3)c(Cl)cc2Cl)sc2c1CCN(Cc1ccc([N+](=O)[O-])cc1)C2
94

Now look at this entry.
Field request: IC50 | item: N#Cc1c(NC(=O)c2cc(S(=O)(=O)N3CCOCC3)c(Cl)cc2Cl)sc2c1CCN(Cc1ccc(-c3nnn[nH]3)cc1)C2 120

====

Tested on: Escherichia coli
Experiment: Inhibition of Escherichia coli MurF using D-Ala-D-Ala/UMtri-mDAP as substrate assessed as residual activity at 100 uM after 15 mins by Malachite green method
Parameter measured: Activity (%)
Give bare numbers, in %.

Here are 5 compounds together with their reported answers.
CC1CCN(S(=O)(=O)c2cc(C(=O)Nc3sc4c(c3C#N)CCCC4)c(Cl)cc2Cl)CC1
87
CCOC(=O)c1ccc(N2CCc3c(sc(NC(=O)c4cc(S(=O)(=O)N5CCOCC5)c(Cl)cc4Cl)c3C#N)C2)cc1
98
N#Cc1ccc(CN2CCc3c(sc(NC(=O)c4cc(S(=O)(=O)N5CCOCC5)c(Cl)cc4Cl)c3C#N)C2)c(F)c1
58
N#Cc1c(NC(=O)c2cc(S(=O)(=O)N3CCOCC3)c(Cl)cc2Cl)sc2c1CCCC2
100
N#Cc1c(NC(=O)c2cc(S(=O)(=O)N3CCCC(C(=O)O)C3)c(Cl)cc2Cl)sc2c1CCCC2 (stereo unspecified)
100

Then there is this compound:
May I ask what Activity has been recorded for CCOC(=O)C1CCCN(S(=O)(=O)c2cc(C(=O)Nc3sc4c(c3C#N)CCCC4)c(Cl)cc2Cl)C1 (stereo unspecified) ? 94
